SYSTEM: T1, human CD22, full length, on CHO-K1-human CD22 2C4 cells (human, UniProt P20273 20-847)
T1 construct: Full-length human CD22 (NCBI NP_001762.2) stably transfected into CHO-K1
T1 sequence: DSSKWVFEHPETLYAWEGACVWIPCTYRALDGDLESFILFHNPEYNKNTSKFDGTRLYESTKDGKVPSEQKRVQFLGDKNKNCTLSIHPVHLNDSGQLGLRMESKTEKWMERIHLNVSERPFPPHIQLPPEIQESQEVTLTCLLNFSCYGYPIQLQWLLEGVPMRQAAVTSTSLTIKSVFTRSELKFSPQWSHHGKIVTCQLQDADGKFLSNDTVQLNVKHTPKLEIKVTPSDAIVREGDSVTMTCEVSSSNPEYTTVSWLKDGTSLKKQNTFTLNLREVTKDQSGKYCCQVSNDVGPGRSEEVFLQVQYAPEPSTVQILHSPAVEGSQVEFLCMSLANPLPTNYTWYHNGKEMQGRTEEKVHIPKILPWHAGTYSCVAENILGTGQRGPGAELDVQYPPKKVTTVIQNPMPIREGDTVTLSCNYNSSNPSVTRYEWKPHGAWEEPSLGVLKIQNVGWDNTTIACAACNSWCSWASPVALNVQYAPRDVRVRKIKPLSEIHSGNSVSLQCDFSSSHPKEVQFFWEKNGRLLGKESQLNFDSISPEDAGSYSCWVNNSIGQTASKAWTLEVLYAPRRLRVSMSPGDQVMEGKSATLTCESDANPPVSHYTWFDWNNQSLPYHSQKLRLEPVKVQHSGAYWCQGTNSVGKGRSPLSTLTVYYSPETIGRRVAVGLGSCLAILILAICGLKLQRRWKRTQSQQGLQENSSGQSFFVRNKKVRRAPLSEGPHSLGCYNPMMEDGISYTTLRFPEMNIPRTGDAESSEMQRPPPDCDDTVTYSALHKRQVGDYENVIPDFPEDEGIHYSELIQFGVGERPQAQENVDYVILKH
TEST_NAME: FACS, CHO-K1-human CD22 2C4 cells
Description: The required cells were scale-up cultured in a T-75 cell culture flask to the logarithmic growth phase. For the adherent cell CHO-K1, the medium was aspirated, the cells were washed 2 times with PBS buffer, and then digested with trypsin. After the digestion was terminated, the cells were washed 2 times with PBS buffer. […] Data analysis was performed by software (CellQuest) to obtain the mean fluorescence density (MFI)of the cells. […]
# reported Maximum mean fluorescence intensity; entries follow
Provide the reading as a plain figure in MFI.

Study these solved cases before continuing.
binder="F1.280.1 human-murine chimeric antibody (antibody, human IgG1, kappa, V domains shown, Chimeric, human IgG1 / kappa) VH: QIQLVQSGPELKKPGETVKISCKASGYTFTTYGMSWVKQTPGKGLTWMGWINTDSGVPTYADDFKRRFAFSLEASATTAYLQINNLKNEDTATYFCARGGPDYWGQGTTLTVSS VL: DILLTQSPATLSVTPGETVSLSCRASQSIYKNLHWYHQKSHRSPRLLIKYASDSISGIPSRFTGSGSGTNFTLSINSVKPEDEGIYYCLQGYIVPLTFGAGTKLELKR" unit_name=MFI obs_value=43800
binder="F1.161.7 human-murine chimeric antibody (antibody, human IgG1, kappa, V domains shown, Chimeric, human IgG1 / kappa) VH: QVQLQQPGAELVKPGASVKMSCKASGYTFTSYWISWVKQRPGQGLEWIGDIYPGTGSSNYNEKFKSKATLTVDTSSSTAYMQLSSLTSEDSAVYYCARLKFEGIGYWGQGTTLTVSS VL: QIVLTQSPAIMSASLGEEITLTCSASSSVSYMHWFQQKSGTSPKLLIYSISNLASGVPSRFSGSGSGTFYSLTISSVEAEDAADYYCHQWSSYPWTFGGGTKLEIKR" unit_name=MFI obs_value=37100

Next, consider the following binder.
Find the recorded Maximum mean fluorescence intensity belonging to F1.224.1 human-murine chimeric antibody (antibody, human IgG1, kappa, V domains shown, Chimeric, human IgG1 / kappa; VL tied by name) VH: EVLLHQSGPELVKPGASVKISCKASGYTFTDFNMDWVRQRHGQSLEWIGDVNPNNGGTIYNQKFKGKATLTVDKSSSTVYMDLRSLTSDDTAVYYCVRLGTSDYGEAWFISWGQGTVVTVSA VL: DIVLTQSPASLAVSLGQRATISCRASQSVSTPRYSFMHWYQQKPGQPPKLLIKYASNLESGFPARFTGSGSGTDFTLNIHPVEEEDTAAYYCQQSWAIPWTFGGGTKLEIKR and report it.
30400
